system: Enterobacter cloacae; experiment: Antibacterial activity against non-gentamicin-resistant Enterobacter cloacae clinical isolate after 18 hrs by agar dilution method; assay type: functional
Listed here: items and their measured MIC50.
Return type: number; implicit unit µg/mL.

INSERT INTO assay_data (compound, measured_property, observed_measurement) VALUES
  ('CCN[C@@H]1C[C@H](N)[C@@H](O[C@@H]2OC(C(C)N)=CC[C@@H]2N)[C@H](O)[C@H]1O[C@H]1OC[C@](C)(O)[C@H](NC)[C@H]1O (some centres undefined)', 'MIC50', 0.25);

Tell me measured MIC50 for NCC[C@H](O)C(=O)N[C@@H]1C[C@H](N)[C@@H](O[C@H]2O[C@H](CN)[C@@H](O)[C@H](O)[C@H]2O)[C@H](O)[C@H]1O[C@H]1O[C@H](CO)[C@@H](O)[C@H](N)[C@H]1O please.
2

Tell me measured MIC50 for CN[C@@H]1[C@@H](O)[C@@H](O[C@@H]2[C@@H](O)[C@H](O[C@@H]3OC(C(C)N)=CC[C@@H]3N)[C@@H](N)C[C@H]2N)OC[C@]1(C)O (some centres undefined) please.
0.25

Tell me measured MIC50 for CCN[C@@H]1C[C@H](N)[C@@H](O[C@H]2OC(CN)=CC[C@H]2N)[C@H](O)[C@H]1O[C@H]1OC[C@](C)(O)[C@H](NC)[C@H]1O please.
0.5
